biological target: T1, Cynomolgus Factor P (cynomolgus); test: Biacore SPR, captured Factor P
T1 construct: Purified from cynomolgus serum for SET/Biacore; Factor P of cynomolgus serum in the functional assays; also called Cyno Factor P; cyno FP
A collection of binders and their measured kon
reported property: kon

>>> test_result("NVS965-T (Fab, V domains shown, NVS965 with heavy chain N30 replaced with threonine) VH: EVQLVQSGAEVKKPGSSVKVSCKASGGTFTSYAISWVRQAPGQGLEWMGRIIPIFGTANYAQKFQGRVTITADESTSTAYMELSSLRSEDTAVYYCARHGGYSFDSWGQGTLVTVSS VL: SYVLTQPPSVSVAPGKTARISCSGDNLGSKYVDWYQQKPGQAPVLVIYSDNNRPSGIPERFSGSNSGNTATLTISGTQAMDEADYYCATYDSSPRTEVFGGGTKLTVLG")
"2.17e+06 M⁻¹ s⁻¹"
>>> test_result("NVS962-G (Fab, V domains shown, NVS962 with heavy chain N30 replaced with glycine) VH: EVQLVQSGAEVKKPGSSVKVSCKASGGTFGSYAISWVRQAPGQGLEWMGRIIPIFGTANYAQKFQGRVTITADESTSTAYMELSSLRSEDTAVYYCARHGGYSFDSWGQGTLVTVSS VL: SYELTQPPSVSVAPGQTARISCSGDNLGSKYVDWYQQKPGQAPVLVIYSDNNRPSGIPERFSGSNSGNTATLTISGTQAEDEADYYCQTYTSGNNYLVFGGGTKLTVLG")
"313000 M⁻¹ s⁻¹"
>>> test_result("NVS963 (Fab, V domains shown, Disulfide-bridged Fab; also called Fab NVS963) VH: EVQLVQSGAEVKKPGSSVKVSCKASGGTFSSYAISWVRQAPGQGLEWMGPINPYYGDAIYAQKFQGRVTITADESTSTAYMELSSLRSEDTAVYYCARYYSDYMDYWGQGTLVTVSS VL: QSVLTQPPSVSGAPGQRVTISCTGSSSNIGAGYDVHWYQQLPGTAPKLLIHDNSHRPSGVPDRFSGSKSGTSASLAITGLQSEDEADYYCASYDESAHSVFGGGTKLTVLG")
"1e+06 M⁻¹ s⁻¹"
>>> test_result("NVS962 (Fab, V domains shown, also called Fab NVS962) VH: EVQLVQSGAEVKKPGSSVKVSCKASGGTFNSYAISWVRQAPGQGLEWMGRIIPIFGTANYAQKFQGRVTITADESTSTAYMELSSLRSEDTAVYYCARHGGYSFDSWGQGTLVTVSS VL: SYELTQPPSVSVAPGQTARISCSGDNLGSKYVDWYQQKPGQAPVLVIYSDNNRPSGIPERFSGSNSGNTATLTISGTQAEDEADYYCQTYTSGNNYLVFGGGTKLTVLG")
"1.53e+06 M⁻¹ s⁻¹"
>>> test_result("NVS962-Q (Fab, V domains shown, NVS962 with heavy chain N30 replaced with glutamine (deamidation site removed)) VH: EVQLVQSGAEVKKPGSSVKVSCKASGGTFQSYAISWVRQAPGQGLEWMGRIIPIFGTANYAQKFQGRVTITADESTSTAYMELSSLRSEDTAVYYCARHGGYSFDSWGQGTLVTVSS VL: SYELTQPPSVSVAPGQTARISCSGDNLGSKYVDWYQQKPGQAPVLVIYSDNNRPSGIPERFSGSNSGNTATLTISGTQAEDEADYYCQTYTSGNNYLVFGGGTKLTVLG")
"555000 M⁻¹ s⁻¹"
